experimental-setup: in cyclohexanone, 298.15 K
measurement-type: solubility (mole fraction)
Answer with a bare number; do not write a unit.

Which solubility (mole fraction) is listed for `O=[N+]([O-])c1ccc(S(=O)(=O)[O-])cc1.[Na+]` ?
0.000927

====

experimental-setup: in acetone, 303.15 K
measurement-type: solubility (mole fraction)
Answer with a bare number; do not write a unit.

Which solubility (mole fraction) is listed for `O=[N+]([O-])c1ccc(S(=O)(=O)[O-])cc1.[Na+]` ?
0.0206

====

experimental-setup: in ethanol, 318.15 K
measurement-type: solubility (mole fraction)

Which solubility (mole fraction) is listed for `O=[N+]([O-])c1ccc(S(=O)(=O)[O-])cc1.[Na+]` ?
0.00232
